# experimental system: Sphingosine 1-phosphate receptor 1 (Homo sapiens)
# Sequence (P21453 whole entry): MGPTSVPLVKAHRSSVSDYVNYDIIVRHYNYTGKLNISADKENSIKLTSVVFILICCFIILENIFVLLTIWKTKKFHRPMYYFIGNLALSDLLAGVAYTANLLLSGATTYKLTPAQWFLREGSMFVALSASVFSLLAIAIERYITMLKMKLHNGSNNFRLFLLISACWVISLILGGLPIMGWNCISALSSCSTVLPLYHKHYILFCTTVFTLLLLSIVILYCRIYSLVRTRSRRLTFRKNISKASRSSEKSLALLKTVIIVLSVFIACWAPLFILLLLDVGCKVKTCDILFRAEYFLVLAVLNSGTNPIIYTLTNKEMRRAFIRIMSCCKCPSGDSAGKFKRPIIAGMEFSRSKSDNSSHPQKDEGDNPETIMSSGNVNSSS
# procedure summary: direct activation of human S1P1 – cell-based, agonist mode, 60K MLSMR set, dose response (AID 468)
parameter measured: pEC50
One number for each entry, as −log10 of the molar value.

Example entries begin here.
COc1ccccc1OCCCCCc1c(C)n[nH]c1C: 5.01
C=CCN1/C(=N/c2cccnc2)SCC1(O)c1ccc(C)cc1 (stereo unspecified): 5.21
c1ccc(-c2ccc(-c3nc(-c4cccnc4)no3)cc2)cc1: 5.63
Cc1nn(C(=O)c2cccs2)c(N)c1-c1ccccc1: 5.14
Cc1ccc(OCc2nc(-c3ccccc3)no2)c(C)c1: 5.58
CN(C)c1ccnc2sc3c(=O)n(Cc4ccccc4)cnc3c12: 5.61
Cc1ccc(-c2nnc(SCc3ccccc3F)o2)cc1: 5.75
CCCCc1ccc(C2C(C#N)C(=N)SC(=N)C2C#N)s1 (stereo unspecified): 4.87

Now for the compound whose pEC50 we want.
Missing value: pEC50, Sphingosine 1-phosphate receptor 1 (Homo sapiens), entry O=C(CSc1nnc(-c2c[nH]c3ccccc23)o1)N1c2ccccc2CCc2ccccc21 . Fill in?
5.15
